pIC50: −log10 of the molar value.
Here we gather pIC50 data for Cytochrome P450 2C19 (Homo sapiens) reported by several publications.

[
  {
    "COMPOUND": "COc1cccc2c1[C@H](c1ccccc1)N(C(=O)CNC[C@@H](C)O)CC2",
    "TARGET DESC": "Cytochrome P450 2C19 (Homo sapiens)",
    "QUANTITY MEASURED": "pIC50",
    "RESULT": "< 4.30"
  }
]

Lab note: measured pIC50 of COc1nc(C2=NOC(C3CC3)C(c3ccc(Cl)cc3)N2)ccc1-n1cnc(C)c1 (stereo not drawn) was 5.04

Lab note: measured pIC50 of Cc1cccc(-c2[nH]c(NCc3cccc(Cl)c3F)nc2-c2ccc3[nH]ncc3c2)n1 was 5.44

Lab note: measured pIC50 of COc1ccc2c(c1)[C@]1(C[C@H]1c1ccc3c(/C=C/c4ccc(CN5[C@H](C)CN(C)C[C@@H]5C)cc4)n[nH]c3c1)C(=O)N2 was 6.09

Lab note: measured pIC50 of Cc1nc2c(C#N)cccc2n1-c1ccc(C(=O)NC2CC2)s1 was < 5.00

Lab note: measured pIC50 of COc1ccc(C(NC(=O)c2cnc(-c3cccnn3)nc2O)c2ccc(OC)cc2)cc1 was < 4.22
